Each recorded value in this set is attributed to paper PMC8930183.

B1: Pf12 D1D2 (residues 28-304), untagged [Plasmodium falciparum] / octa-histidine tagged Pf41 D1D2 (residues 21-368) [Plasmodium falciparum] (parent complex)
chain 1: NLTCDFNDVYKLEFHPNQQTSVTKLCNLTPNVLEKVTIKCGSDKLNYNLYPPTCFEEVYASRNMMHLKKIKEFVIGSSMFMRRSLTPNKINEVSFRIPPNMMPEKPIYCFCENKKTITINGSNGNPSSKKDIINRGIVEIIIPSLNEKVKGCDFTTSESTIFSKGYSINEISNKSSNNQQDIVCTVKAHANDLIGFKCPSNYSVEPHDCFVSAFNLSGKNENLENKLKLTNIIMDHYNNTFYSRLPSLISDNWKFFCVCSKDNEKKLVFTVEASISS
chain 2: KSHKCDFTKEKYLLSGEKEVSCEIDANPSDDITFICPNKIDSLCFHTVNISKNINQNKSTMSIQDLLYGSVVYGNTLFISPYVRTNTPFYCFCNLDTVTIQKFLKINRFLKDDDELSEADVMKHLKGGNVSEAQADEYLNKALNRFKKMKDLSKFFNDQADNTTKLNLPKSLNIPNDILNYDVYNSSNNRNDIVVKDEVTNKQIISKRGIMSVFVRSNNNVIKGCDFGNNNKNYFSHPISVAGKVNNKVCKIQGKPGELVGFKCAFEENGKVEPPNCFDQVLHKNKVTDLKTLIPGYASYTNKHSSKYPYYLKIPHFVNEQYTIQCKCKSNNSQNEYTFELDIQPGES

- Variants of: B1
- measurement protocol: BLI; mutant at 1000 nM, 500 nM, and 250 nM; binding to immobilised WT Pf41; parent: 100; read off a plot
The following variants are shown together with reported percent of parent values.

chain 1 M79A
~27 % WT

Give the measured percent of parent of chain 1 R96E . ~3 % WT

Give the measured percent of parent of chain 1 R82E . ~0 % WT
